Reference source: patent US20190315854A1

Target: T1, sIL-6R (soluble IL-6 receptor; SBH Sciences) (human, UniProt P08887 20-365)
T1 construct: also called human IL-6R
T1 sequence: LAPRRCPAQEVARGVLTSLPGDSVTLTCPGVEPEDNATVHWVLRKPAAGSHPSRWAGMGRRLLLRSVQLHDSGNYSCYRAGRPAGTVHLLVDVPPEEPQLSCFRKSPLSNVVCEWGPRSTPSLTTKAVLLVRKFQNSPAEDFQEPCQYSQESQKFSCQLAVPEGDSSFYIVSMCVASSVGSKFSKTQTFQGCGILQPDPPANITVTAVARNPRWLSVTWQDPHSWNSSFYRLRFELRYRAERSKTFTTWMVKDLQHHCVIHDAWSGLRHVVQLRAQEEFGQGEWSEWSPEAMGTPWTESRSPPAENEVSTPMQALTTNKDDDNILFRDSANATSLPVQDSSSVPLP
Assay: SPR (BIAcore 3000), antibody on chip, sIL-6R analyte, pH 6.0
measured-parameter: kon (M⁻¹ s⁻¹)

binder="205# (antibody, human IgG1, kappa, V domains shown) VH: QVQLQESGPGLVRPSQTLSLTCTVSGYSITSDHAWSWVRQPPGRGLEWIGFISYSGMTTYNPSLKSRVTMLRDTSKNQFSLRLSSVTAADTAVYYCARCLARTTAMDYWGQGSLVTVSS VL: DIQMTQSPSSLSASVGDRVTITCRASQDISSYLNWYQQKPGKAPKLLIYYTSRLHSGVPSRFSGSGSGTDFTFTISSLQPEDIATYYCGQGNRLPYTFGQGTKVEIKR" measured_parameter=kon readout_unit="M⁻¹ s⁻¹" endpoint_value=384000
